biological target: T1, human transferrin receptor (hTfR) fused to EGFP, on CHO cells (human, UniProt P02786 1-760); assay: flow cytometry on CHO-hTfR-EGFP cells, 1 hr at 4 C, anti-6His + Alexa647 anti-mouse; ratio to background fluorescence
T1 construct: whole, on cells; also called human TfR; CHO-hTfR-EGFP; not shown: EGFP from pEGFP-C1 vector, fused to the N-terminal (intracellular) end of hTfR
T1 sequence (P02786 whole entry, the tested form may be a part): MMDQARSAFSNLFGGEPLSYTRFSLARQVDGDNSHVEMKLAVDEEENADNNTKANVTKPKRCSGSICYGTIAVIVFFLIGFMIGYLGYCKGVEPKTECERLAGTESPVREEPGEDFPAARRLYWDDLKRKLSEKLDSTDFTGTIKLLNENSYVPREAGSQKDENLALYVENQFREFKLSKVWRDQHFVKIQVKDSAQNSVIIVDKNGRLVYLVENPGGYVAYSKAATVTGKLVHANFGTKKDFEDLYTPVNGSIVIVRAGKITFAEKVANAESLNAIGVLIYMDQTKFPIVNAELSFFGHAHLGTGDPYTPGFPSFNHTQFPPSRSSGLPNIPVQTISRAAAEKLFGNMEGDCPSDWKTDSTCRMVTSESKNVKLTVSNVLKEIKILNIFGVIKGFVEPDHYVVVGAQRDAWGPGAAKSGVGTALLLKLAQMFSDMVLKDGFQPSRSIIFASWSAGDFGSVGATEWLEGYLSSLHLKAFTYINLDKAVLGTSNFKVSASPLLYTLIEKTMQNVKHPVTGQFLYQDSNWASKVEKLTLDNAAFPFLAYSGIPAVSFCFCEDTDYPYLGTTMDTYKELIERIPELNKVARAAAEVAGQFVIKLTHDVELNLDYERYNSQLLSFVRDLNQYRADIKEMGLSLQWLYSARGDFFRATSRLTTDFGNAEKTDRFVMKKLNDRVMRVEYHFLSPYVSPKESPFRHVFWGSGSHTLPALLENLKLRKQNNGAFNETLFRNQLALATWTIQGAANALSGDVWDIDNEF
Recorded EC50 (read off the curve), one value per entry.

Solved cases (3 shown):
VHH A (C5) (VHH, form with the C-terminal myc-His6 tag (x = 1), since the VHHs were detected with anti-6His or anti-cMyc; the same holds for m12 to m126) VHH: EVQLVESGGGVVQPGGSLKLSCVASGTDFSINFIRWYRQAPGKQREFVAGFTATGNTNYADSMKGRFTISRDNTKNAVYLQIDSLKPEDTAVYYCYMLDKWGQGTQVTVSS    ~5 nM
VHH A-siGFPst1 bioconjugate (VHH, siGFPst1 siRNA linked by azide/DBCO click chemistry to the Gln of the C-terminal Q-tag, not shown: C-terminal tag with His tag and Q-tag (Q-tagged VHH)) VHH: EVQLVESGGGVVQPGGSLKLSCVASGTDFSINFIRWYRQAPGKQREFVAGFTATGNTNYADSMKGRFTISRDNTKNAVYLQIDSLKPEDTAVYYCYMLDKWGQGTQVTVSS    ~3 nM
VHH B (B8) (VHH) VHH: EVQLVESGGGVVQPGGSLRLSCAASGEIFSINFMRWYRQAPGKQREWVAGFTRDGSTNYPDSAKGRFTISRDNAKNTVYLQIDSLKPEDTAVYYCYMLDTWGQGTQVTVSS    ~4 nM

Can you look up the measured EC50 (read off the curve) of VHH B-siGFPst1 bioconjugate (VHH, siGFPst1 siRNA linked to the Gln of the C-terminal Q-tag, not shown: C-terminal tag with His tag and Q-tag) VHH: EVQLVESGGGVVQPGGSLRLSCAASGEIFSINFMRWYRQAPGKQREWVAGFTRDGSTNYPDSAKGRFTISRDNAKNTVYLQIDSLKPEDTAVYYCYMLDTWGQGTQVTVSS for me?
~3 nM
